The measurements presented in this section are drawn from patent US8945540B2.

# Test system: Staphylococcus aureus
# protocol-summary: Microbicidal activity of the myeloperoxidase system (p-MPO, glucose oxidase, glucose) with amino acids in the presence of blood, CFU plate counts; synergy determination from these CFU
# Format: cell-based
# cond: MPO 100 μg/mL; AA 20 mM; 60 min
Answer f if Log 10 (CFU + 1) Survivors is under 0.8, and t if it is 0.8 or more.

Example entries and their recorded answers appear below.
structure: NC(=O)CC[C@H](N)C(=O)O
assay-system: Staphylococcus aureus
qualitative-label: t
//
structure: N[C@H](Cc1ccc(O)cc1)C(=O)O
assay-system: Staphylococcus aureus
qualitative-label: f
//
structure: C[C@H](N)C(=O)O
assay-system: Staphylococcus aureus
qualitative-label: f
//
structure: CC(C)C[C@H](N)C(=O)O
assay-system: Staphylococcus aureus
qualitative-label: f
//
structure: N[C@@H](CCC(=O)O)C(=O)O
assay-system: Staphylococcus aureus
qualitative-label: t

# check: Log 10 (CFU + 1) Survivors of "O=C(O)[C@@H]1CCCN1" is greater than or equal to 0.8 f

Please indicate if the recorded Log 10 (CFU + 1) Survivors for "CC[C@@H](C)[C@@H](N)C(=O)O" meets or exceeds 0.8. f

In plain terms: is recorded Log 10 (CFU + 1) Survivors at least 0.8 for "N[C@@H](Cc1c[nH]cn1)C(=O)O" ? t

====

# Test system: Staphylococcus aureus
# protocol-summary: Control: microbicidal activity of the amino acid or analogue alone (no glucose, MPO, glucose oxidase) in the presence of blood
# Format: cell-based
# cond: Staphylococcus aureus, 1 h; amino acid alone 5 mM; MPO 0; GO 0; no glucose; blood; without replication; read-out: Log Reduction 60 min
For each of the compounds below, state its log reduction at 5000 µM.
Numbers only.

Completed entries (count: 2):
structure: NC(=O)C[C@H](N)C(=O)O
log reduction at 5000 µM: 0
--
structure: O=C(O)[C@H]1CCCN1
log reduction at 5000 µM: 0.1

Look at each compound and report its log reduction at 5000 µM.
1. NCC(=O)O
2. N[C@@H](Cc1ccc(O)cc1)C(=O)O

1. 0
2. 0

====

# Tested on: Staphylococcus aureus
# protocol-summary: Control: microbicidal activity of the amino acid or analogue alone (no glucose, MPO, glucose oxidase) in the presence of blood
# Assay type: cell-based
# cond: amino acid analogue alone 5 mM; MPO 0; GO 0; no glucose; blood
I'd appreciate it if you could supply Average Viability CFU/ml 60 min values for the items below.
Give bare numbers, in CFU/ml.

Worked examples follow.
molecule: COC(=O)[C@@H](N)CCCCN.Cl.Cl [L-Lysine methyl ester dihydrochloride]
Average Viability CFU/ml 60 min (CFU/ml): 21500000
//
molecule: CCOC(=O)CC(C)N (centres unmarked) [Ethyl 3-aminobutyrate]
Average Viability CFU/ml 60 min (CFU/ml): 20900000
//
molecule: CCOC(=O)[C@@H](N)C(C)C.Cl [L-Valine ethyl ester hydrochloride]
Average Viability CFU/ml 60 min (CFU/ml): 22300000
//
molecule: COC(=O)[C@@H](N)Cc1ccc(O)cc1.Cl [L-Tyrosine methyl ester hydrochloride]
Average Viability CFU/ml 60 min (CFU/ml): 20900000
//
molecule: CNCC(=O)OC.Cl [Sarcosine methyl ester hydrochloride]
Average Viability CFU/ml 60 min (CFU/ml): 23200000
//
molecule: CC(N)CC(=O)O (centres unmarked)
Average Viability CFU/ml 60 min (CFU/ml): 21300000
//
molecule: CC(CN)C(=O)O (racemic)
Average Viability CFU/ml 60 min (CFU/ml): 24200000

// query Average Viability CFU/ml 60 min value for entry CCOC(=O)C(C)N (centres unmarked) [Ethyl 2-aminopropanoate] 23200000

====

# Tested on: Staphylococcus aureus
# protocol-summary: Microbicidal activity of the myeloperoxidase system (p-MPO, glucose oxidase, glucose) with amino acids in the presence of blood, CFU plate counts; synergy determination from these CFU
# Type: cell-based
# cond: MPO 100 μg/mL; AA 20 mM; 60 min
For each record, write down the corresponding Log 10 (CFU + 1) Survivors.

compound: O=C(O)[C@H]1CCCN1 [D-Proline]
Log 10 (CFU + 1) Survivors: 0.0
//
compound: N[C@@H](Cc1ccccc1)C(=O)O [L-Phenylalanine]
Log 10 (CFU + 1) Survivors: 0.0
//
compound: N[C@@H](Cc1ccc(O)cc1)C(=O)O [L-Tyrosine]
Log 10 (CFU + 1) Survivors: 7.2
//
compound: C[C@@H](N)C(=O)O [D-Alanine]
Log 10 (CFU + 1) Survivors: 0.0
//
compound: N[C@@H](CC(=O)O)C(=O)O [L-Aspartic acid]
Log 10 (CFU + 1) Survivors: 6.8

For the 2 compounds below, give their Log 10 (CFU + 1) Survivors values.
1. NCCS(=O)(=O)O [Taurine]
2. C[C@H](O)[C@@H](N)C(=O)O [D-Threonine]

1. 5.1
2. 5.0

====

# Test system: Staphylococcus aureus
# protocol-summary: Microbicidal activity of the myeloperoxidase system (p-MPO, glucose oxidase, glucose) with amino acids in the presence of blood, CFU plate counts; synergy determination from these CFU
# Type: cell-based
# cond: average of CFU of the individual D- and L-enantiomers
For each of the compounds below, state its Predicted Average of Amino Acids.
Remember to quote the unit after the number.

Past entries and their recorded results:
compound: NC(Cc1ccccc1)C(=O)O (racemic)
Predicted Average of Amino Acids: 9950000 CFU
--
compound: CC(C)CC(N)C(=O)O (racemic)
Predicted Average of Amino Acids: 209500 CFU
--
compound: CC(C)C(N)C(=O)O (racemic)
Predicted Average of Amino Acids: 367250 CFU

// moving on: another record for Predicted Average of Amino Acids
What measured Predicted Average of Amino Acids goes with CC[C@H](C)[C@H](N)C(=O)O (racemic) ? 162667 CFU

====

# Tested on: Staphylococcus aureus
# protocol-summary: Microbicidal activity of the myeloperoxidase system (p-MPO, glucose oxidase, glucose) with amino acids in the presence of blood, CFU plate counts; synergy determination from these CFU
# Format: cell-based
# cond: Table 11; single amino acid 2.5 mM; MPO 4.7 U/ml, GO 4.2 U/ml; in the presence of blood; 50 min
Kindly supply the reported Log Reduction 50 min values for the records listed here.
Answers are plain numbers.

structure: CC(C)C[C@H](N)C(=O)O
Log Reduction 50 min: 2.1
//
structure: COC(=O)[C@@H](C)N
Log Reduction 50 min: 0.5
//
structure: CC[C@H](C)[C@H](N)C(=O)O
Log Reduction 50 min: 2.2
//
structure: N[C@@H](Cc1ccccc1)C(=O)O
Log Reduction 50 min: 0.4
//
structure: NCCCC[C@H](N)C(=O)O
Log Reduction 50 min: 0.2
//
structure: C[C@H](O)[C@@H](N)C(=O)O
Log Reduction 50 min: 1.1
//
structure: CC[C@@H](C)[C@@H](N)C(=O)O
Log Reduction 50 min: 2.1
//
structure: N[C@H](Cc1c[nH]cn1)C(=O)O
Log Reduction 50 min: 0.5

Would you mind listing Log Reduction 50 min for each of the following compounds?
1. CC(C)C[C@@H](N)C(=O)O
2. N[C@@H](Cc1c[nH]cn1)C(=O)O
3. NC(=O)CC[C@@H](N)C(=O)O

1.9
0.6
0.2

Value lookup for Log Reduction 50 min; key = "O=C(O)[C@H]1CCCN1" 1.2

====

Would you kindly list Log Reduction 50 min for each of these molecules?
# Tested on: Staphylococcus aureus
# protocol-summary: Microbicidal activity of the myeloperoxidase system (p-MPO, glucose oxidase, glucose) with amino acids in the presence of blood, CFU plate counts; synergy determination from these CFU
# Assay type: cell-based
# cond: Table 13; single amino acid 2.5 mM; MPO 4.7 U/ml, GO 4.2 U/ml; in the presence of blood; 50 min
Give bare numbers.

Reference set (5 entries):
molecule: N[C@@H](CC(=O)O)C(=O)O [L-Aspartic acid]
assay-result: 0.7

molecule: C[C@@H](N)C(=O)O [D-Alanine]
assay-result: 1.1

molecule: C[C@@H](O)[C@H](N)C(=O)O [L-Threonine]
assay-result: 1.2

molecule: N[C@@H](CCC(=O)O)C(=O)O [L-Glutamic acid]
assay-result: 0.3

molecule: N[C@@H](Cc1ccc(O)cc1)C(=O)O [L-Tyrosine]
assay-result: 1.4

We next turn to a different molecule, shown below.
GET /values?readout=Log Reduction 50 min&system=Staphylococcus aureus&item= CC(C)C[C@@H](N)C(=O)O [D-Leucine] 2.3

====

Please go through the items and note down their Log Reduction 60 min.
# Tested on: Staphylococcus aureus
# protocol-summary: Microbicidal activity of the myeloperoxidase system (p-MPO, glucose oxidase, glucose) with amino acids in the presence of blood, CFU plate counts; synergy determination from these CFU
# Type: cell-based
# cond: Table 2; amino acid 5 mM (none: 0 mM); MPO 38 U/ml; GO 33.3 U/ml; blood
One number for each entry.

Solved entries (count: 5):
structure: O=C(O)[C@@H]1CCCN1
assay-result: 3.7
--
structure: NC(=O)CC[C@H](N)C(=O)O
assay-result: 4.9
--
structure: NCCCC[C@H](N)C(=O)O
assay-result: 7.4
--
structure: N=C(N)NCCC[C@H](N)C(=O)O
assay-result: 0.6
--
structure: NCC(=O)O
assay-result: 7.4

Answer for every listed entry: what is its Log Reduction 60 min? The entries follow.
1. N[C@@H](CCC(=O)O)C(=O)O
2. CSCC[C@H](N)C(=O)O
3. N[C@@H](Cc1c[nH]cn1)C(=O)O
4. N[C@@H](Cc1ccccc1)C(=O)O
5. N[C@@H](CO)C(=O)O
6. N[C@@H](CS)C(=O)O

5.0
0.6
2.7
7.4
7.4
0.1

Please give Log Reduction 60 min for each item listed below.
1. C[C@@H](O)[C@H](N)C(=O)O
2. C[C@H](N)C(=O)O
3. CC(C)[C@H](N)C(=O)O
4. N[C@@H](Cc1c[nH]c2ccccc12)C(=O)O

1: 1.6; 2: 6.5; 3: 7.4; 4: 0.1
